- assayed-target: UDP-3-O-acyl-N-acetylglucosamine deacetylase (Pseudomonas aeruginosa (strain ATCC 15692 / PAO1 / 1C / PRS 101 / LMG12228))
- Sequence (P47205 whole entry): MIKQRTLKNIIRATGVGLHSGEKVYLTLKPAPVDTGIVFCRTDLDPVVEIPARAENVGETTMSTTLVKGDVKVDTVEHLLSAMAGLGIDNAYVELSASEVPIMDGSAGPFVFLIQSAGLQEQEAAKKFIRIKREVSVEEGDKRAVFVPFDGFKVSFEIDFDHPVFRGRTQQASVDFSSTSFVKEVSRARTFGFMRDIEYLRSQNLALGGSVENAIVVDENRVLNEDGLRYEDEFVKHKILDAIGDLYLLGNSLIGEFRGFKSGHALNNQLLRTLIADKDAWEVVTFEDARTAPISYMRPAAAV
- experiment-notes: Inhibition of Pseudomonas aeruginosa LpxC expressed in Escherichia coli using UDP-3-O-N-acetylglucosamine substrate measured after 30 mins by mass spectrometry
pIC50: −log10 of the molar value.
assay-metric: pIC50

>  <compound-string>
Cc1cc(C)cc(-c2ccn(CC[C@](C)(C(=O)NO)S(C)(=O)=O)c(=O)c2)c1

>  <censoring-sign>
=

>  <readout-number>
8.28

$$$$
>  <compound-string>
C[C@@](CCn1ccc(-c2cccnc2)cc1=O)(C(=O)NO)S(C)(=O)=O

>  <censoring-sign>
<

>  <readout-number>
7.00

$$$$
>  <compound-string>
C[C@@](CCn1ncc(-c2ccccc2)cc1=O)(C(=O)NO)S(C)(=O)=O

>  <censoring-sign>
<

>  <readout-number>
7.14

$$$$
>  <compound-string>
C[C@@](CCn1ccc(-c2ccc(F)cc2)cc1=O)(C(=O)NO)S(C)(=O)=O

>  <censoring-sign>
=

>  <readout-number>
8.54

$$$$
